Hey, just so you know, these numbers are from patent US11999727B2.

- TARGET_DESC: PRMT5 (Homo sapiens)
- Construct: purchased Viva (custom protein)
- Sequence (O14744 whole entry): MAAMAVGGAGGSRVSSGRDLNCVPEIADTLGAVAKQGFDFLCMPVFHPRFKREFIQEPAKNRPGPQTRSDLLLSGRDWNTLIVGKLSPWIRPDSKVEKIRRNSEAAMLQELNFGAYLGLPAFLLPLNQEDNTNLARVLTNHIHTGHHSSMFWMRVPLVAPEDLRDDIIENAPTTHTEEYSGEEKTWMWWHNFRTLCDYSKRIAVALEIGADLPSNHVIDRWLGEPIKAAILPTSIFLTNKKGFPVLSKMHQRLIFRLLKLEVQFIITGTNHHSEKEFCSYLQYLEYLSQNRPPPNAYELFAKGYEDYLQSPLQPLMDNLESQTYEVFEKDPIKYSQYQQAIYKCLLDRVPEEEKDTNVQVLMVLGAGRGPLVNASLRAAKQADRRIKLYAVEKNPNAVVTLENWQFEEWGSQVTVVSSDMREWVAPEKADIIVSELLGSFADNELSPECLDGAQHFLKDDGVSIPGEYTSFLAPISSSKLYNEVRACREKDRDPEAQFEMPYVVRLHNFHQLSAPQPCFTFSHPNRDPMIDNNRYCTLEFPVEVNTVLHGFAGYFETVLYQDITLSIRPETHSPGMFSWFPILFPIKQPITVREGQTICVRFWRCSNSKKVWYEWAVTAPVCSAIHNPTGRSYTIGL
- Sequence (Q9BQA1 whole entry partner): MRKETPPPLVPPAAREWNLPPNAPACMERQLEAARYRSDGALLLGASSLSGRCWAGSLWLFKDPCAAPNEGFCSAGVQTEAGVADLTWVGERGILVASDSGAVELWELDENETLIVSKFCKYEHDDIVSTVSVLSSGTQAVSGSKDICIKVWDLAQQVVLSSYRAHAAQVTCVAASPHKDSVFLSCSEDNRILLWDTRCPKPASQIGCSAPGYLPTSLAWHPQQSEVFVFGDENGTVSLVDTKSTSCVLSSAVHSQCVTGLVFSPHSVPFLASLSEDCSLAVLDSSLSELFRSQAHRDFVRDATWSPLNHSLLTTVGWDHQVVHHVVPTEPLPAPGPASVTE
- TEST_SUMMARY: PRMT5 biochemical IC50 assay with MTA as cofactor
- EXPERIMENTAL_CONDITIONS: PRMT5, MTA as cofactor; read-out: MTA IC50

COMPOUND: COc1ncc(NC(=O)C(=O)N2C[C@@H](C)CC[C@@H]2c2ccc3sccc3c2)cc1C(N)=O (single isomer, unassigned)
TARGET_DESC: PRMT5 (Homo sapiens)
IC50: < 50 nM
--
COMPOUND: Cc1cc(NC(=O)C(=O)N2C[C@H](C)CC[C@H]2c2ccc(N)nc2)cnc1N (single isomer, unassigned)
TARGET_DESC: PRMT5 (Homo sapiens)
IC50: < 50 nM
--
COMPOUND: C[C@H]1CC[C@H](c2cc3cn[nH]c3cc2F)N(C(=O)C(=O)Nc2cncc(C(N)=O)c2)C1 (single isomer, unassigned)
TARGET_DESC: PRMT5 (Homo sapiens)
IC50: < 50 nM
--
COMPOUND: Cc1cc(NC(=O)C(=O)N2C[C@H](C)CC[C@H]2c2cncc(Cl)c2)cnc1N (racemic)
TARGET_DESC: PRMT5 (Homo sapiens)
IC50: 50 to 500 nM
--
COMPOUND: CC(=O)N1CCC(c2cccc([C@H]3CC[C@H](C)CN3C(=O)C(=O)Nc3cncc(C(N)=O)c3)c2)CC1 (single isomer, unassigned)
TARGET_DESC: PRMT5 (Homo sapiens)
IC50: > 500 nM
--
COMPOUND: Cc1ccc([C@H]2CC[C@H](C)CN2C(=O)C(=O)Nc2cncc(C(N)=O)c2)nc1 (racemic)
TARGET_DESC: PRMT5 (Homo sapiens)
IC50: 50 to 500 nM

* * *

Quick reference for IC50 among some compounds
- TARGET_DESC: PRMT5 (Homo sapiens)
- Construct: purchased Viva (custom protein)
- TEST_SUMMARY: PRMT5 biochemical IC50 assay with SAM as cofactor
- EXPERIMENTAL_CONDITIONS: PRMT5, SAM as cofactor; read-out: SAM IC50
OBSERVABLE: IC50

COMPOUND: C[C@H]1CC[C@H](c2ccc3sc(C4CCN(C)CC4)nc3c2)N(C(=O)C(=O)Nc2cncc(C(N)=O)c2)C1 (single isomer, unassigned)
TARGET_DESC: PRMT5 (Homo sapiens)
MEASUREMENT: 0.05 to 0.5 µM
//
COMPOUND: COc1ncc(NC(=O)C(=O)N2C[C@@H](C)CC[C@@H]2c2ccc3sc(CN(C)C)nc3c2)cc1C(N)=O
TARGET_DESC: PRMT5 (Homo sapiens)
MEASUREMENT: 0.05 to 0.5 µM
//
COMPOUND: CCc1cc(NC(=O)C(=O)N2C[C@@H](C)CC[C@@H]2c2ccc3sc(-c4ccccn4)nc3c2)cnc1N
TARGET_DESC: PRMT5 (Homo sapiens)
MEASUREMENT: 0.05 to 0.5 µM
//
COMPOUND: COc1ncc(NC(=O)C(=O)N2C[C@@H](C)CC[C@@H]2c2ccc3cnccc3c2)cc1C(N)=O (single isomer, unassigned)
TARGET_DESC: PRMT5 (Homo sapiens)
MEASUREMENT: 0.05 to 0.5 µM
//
COMPOUND: C[C@@H]1CC[C@@H](c2cccc(Br)c2)N(C(=O)C(=O)Nc2cncc(C(N)=O)c2)C1 (racemic)
TARGET_DESC: PRMT5 (Homo sapiens)
MEASUREMENT: 0.05 to 0.5 µM
//
COMPOUND: C[C@@H]1CN(C(=O)C(=O)Nc2cncc(C(N)=O)c2)[C@@H](c2ccc(F)c(F)c2)CC1(F)F (single isomer, unassigned)
TARGET_DESC: PRMT5 (Homo sapiens)
MEASUREMENT: > 0.5 µM

* * *

Quick reference for pIC50 among some compounds
- TARGET_DESC: PRMT5 (Homo sapiens)
- Construct: purchased Viva (custom protein)
- TEST_SUMMARY: PRMT5 biochemical IC50 assay with SAM as cofactor
- EXPERIMENTAL_CONDITIONS: PRMT5, SAM as cofactor; read-out: SAM IC50
pIC50: −log10 of the molar value.
OBSERVABLE: pIC50

COMPOUND: CNC(=O)c1ccc([C@@H]2CC[C@@H](C)CN2C(=O)C(=O)Nc2cncc(C(N)=O)c2)s1 (single isomer, unassigned)
TARGET_DESC: PRMT5 (Homo sapiens)
MEASUREMENT: 6.30 to 7.30

COMPOUND: C[C@H]1CC[C@H](c2cccc(Cl)c2)N(C(=O)C(=O)Nc2cnc(N)c(C3CC3)c2)C1 (single isomer, unassigned)
TARGET_DESC: PRMT5 (Homo sapiens)
MEASUREMENT: 6.30 to 7.30

COMPOUND: COc1ncc(NC(=O)C(=O)N2C[C@@H](C)CC[C@@H]2c2ccc(N)nc2)cc1C(N)=O (single isomer, unassigned)
TARGET_DESC: PRMT5 (Homo sapiens)
MEASUREMENT: 6.30 to 7.30

* * *

Quick reference for pIC50 among some molecules
- TARGET_DESC: PRMT5 (Homo sapiens)
- Construct: purchased Viva (custom protein)
- TEST_SUMMARY: PRMT5 biochemical IC50 assay with SAM as cofactor
- EXPERIMENTAL_CONDITIONS: PRMT5, SAM as cofactor; read-out: SAM IC50
pIC50: −log10 of the molar value.
OBSERVABLE: pIC50

MOLECULE: NC(=O)c1cncc(NC(=O)C(=O)N2CCCCC2C2CCC(F)(F)CC2)c1 (stereo not shown)
OBSERVABLE: pIC50
MEASUREMENT: 6.30 to 7.30

MOLECULE: Cc1cc(NC(=O)C(=O)N2C[C@@H](C)C(F)(F)C[C@@H]2c2cccc3[nH]ncc23)cnc1N (single isomer, unassigned)
OBSERVABLE: pIC50
MEASUREMENT: < 6.30

MOLECULE: NC(=O)c1cncc(NC(=O)C(=O)N2CCCCC2c2ccccc2)c1 (stereo not shown)
OBSERVABLE: pIC50
MEASUREMENT: 6.30 to 7.30

MOLECULE: CC(=O)N[C@H]1CC[C@H]([C@H]2CC[C@H](C)CN2C(=O)C(=O)Nc2cnc(N)c(C)c2)CC1 (single isomer, unassigned)
OBSERVABLE: pIC50
MEASUREMENT: < 6.30

* * *

- TARGET_DESC: PRMT5 (Homo sapiens)
- Construct: purchased Viva (custom protein)
- TEST_SUMMARY: PRMT5 biochemical IC50 assay with no cofactor
- EXPERIMENTAL_CONDITIONS: PRMT5, no cofactor; read-out: No Cofactor/rel IC50
pIC50: −log10 of the molar value.
Quick reference for pIC50 among some compounds
OBSERVABLE: pIC50

COMPOUND: C[C@H]1CC[C@H](c2ccc(O)c(F)c2)N(C(=O)C(=O)Nc2cncc(C(N)=O)c2)C1 (single isomer, unassigned)
TARGET_DESC: PRMT5 (Homo sapiens)
MEASUREMENT: > 7.30
--
COMPOUND: CCc1cc(NC(=O)C(=O)N2C[C@@H](C)CC[C@@H]2c2ccc(OCC3CCN(C)CC3)cc2)cnc1N
TARGET_DESC: PRMT5 (Homo sapiens)
MEASUREMENT: > 7.30
--
COMPOUND: Cc1cc(NC(=O)C(=O)N2C[C@H](C)CC[C@H]2[C@H]2CC[C@@H](O)CC2)cnc1N (single isomer, unassigned)
TARGET_DESC: PRMT5 (Homo sapiens)
MEASUREMENT: 6.30 to 7.30
--
COMPOUND: C[C@@H]1CC[C@@H](c2ccc(N)nc2)N(C(=O)C(=O)Nc2cncc(C(N)=O)c2)C1 (single isomer, unassigned) [Compound 492]
TARGET_DESC: PRMT5 (Homo sapiens)
MEASUREMENT: > 7.30
--
COMPOUND: COc1ncc(NC(=O)C(=O)N2C[C@H](C)CC[C@H]2c2ccc(NS(C)(=O)=O)nc2)cc1C(N)=O (single isomer, unassigned)
TARGET_DESC: PRMT5 (Homo sapiens)
MEASUREMENT: 6.30 to 7.30
--
COMPOUND: Cc1cc(NC(=O)C(=O)N2C[C@@H](C)CC[C@@H]2c2ccc(F)c(Cl)c2)cnc1N (single isomer, unassigned)
TARGET_DESC: PRMT5 (Homo sapiens)
MEASUREMENT: < 6.30
--
COMPOUND: CCc1cc(NC(=O)C(=O)N2C[C@H](C)CC[C@H]2c2ccc(C(N)=O)s2)cnc1N (single isomer, unassigned)
TARGET_DESC: PRMT5 (Homo sapiens)
MEASUREMENT: > 7.30
--
COMPOUND: C[C@H]1C[C@@H](C)[C@H](c2ccccc2)N(C(=O)C(=O)Nc2cncc(C(N)=O)c2)C1 (single isomer, unassigned)
TARGET_DESC: PRMT5 (Homo sapiens)
MEASUREMENT: < 6.30
--
COMPOUND: COc1ncc(NC(=O)C(=O)N2C[C@@H](C)CC[C@@H]2c2ccc3[nH]c(C)nc3c2)cc1C(N)=O (single isomer, unassigned)
TARGET_DESC: PRMT5 (Homo sapiens)
MEASUREMENT: < 6.30
--
COMPOUND: CC(=O)N[C@H]1CC[C@H]([C@H]2CC[C@H](C)CN2C(=O)C(=O)Nc2cnc(N)c(C)c2)CC1 (single isomer, unassigned)
TARGET_DESC: PRMT5 (Homo sapiens)
MEASUREMENT: < 6.30
--
COMPOUND: C[C@@H]1CC[C@@H](c2ccc(Cl)cc2)N(C(=O)C(=O)Nc2cncc(C(N)=O)c2)C1 (racemic) [Compound 212]
TARGET_DESC: PRMT5 (Homo sapiens)
MEASUREMENT: 6.30 to 7.30
--
COMPOUND: COc1cc([C@@H]2CC[C@@H](C)CN2C(=O)C(=O)Nc2cncc(C(N)=O)c2)cnc1C(F)(F)F (racemic)
TARGET_DESC: PRMT5 (Homo sapiens)
MEASUREMENT: < 6.30
